System: Escherichia coli
assay.method.text: Concentration required for 90 percent inhibition of [14C]- pen-G binding to Escherichia coli DCO PBP4 49 KDa
Field: Concentration. Provide a value for each of the compounds that follow.
Numbers only, in µg/mL.

The examples below pair each entry with its known result.
compound | attribute.measured | unit.spec | meas.value
CC1(C)S[C@@H]2[C@H](NC(=O)[C@@H](CCCCN)c3ccccc3)C(=O)N2[C@H]1C(=O)O | Concentration | µg/mL | 30
CC1(C)S[C@@H]2[C@H](NC(=O)[C@H](CCCCN)c3ccccc3)C(=O)N2[C@H]1C(=O)O | Concentration | µg/mL | 10
CC1(C)S[C@@H]2[C@H](NC(=O)Cc3ccccc3)C(=O)N2[C@H]1C(=O)O [PENICILLIN G] | Concentration | µg/mL | 2
CC(=O)NCCCC[C@H](C(=O)N[C@@H]1C(=O)N2[C@@H]1SC(C)(C)[C@@H]2C(=O)O)c1ccccc1 | Concentration | µg/mL | 30
CC(=O)NCCCC[C@@H](C(=O)N[C@@H]1C(=O)N2[C@@H]1SC(C)(C)[C@@H]2C(=O)O)c1ccccc1 | Concentration | µg/mL | 100

Next compound, please.
Data point: CC1(C)S[C@@H]2[C@H](NC(=O)[C@H](N)c3ccccc3)C(=O)N2[C@H]1C(=O)O [AMPICILLIN] ; Concentration = 0.1

----------
System: Escherichia coli
assay.method.text: Concentration required for 90 percent inhibition of [14C]- pen-G binding to Escherichia coli DCO PBP3 60 KDa
Provide the recorded Concentration for the entries that follow.
One number for each entry, in µg/mL.

item.smiles | system | unit.spec | meas.value
CC1(C)S[C@@H]2[C@H](NC(=O)Cc3ccccc3)C(=O)N2[C@H]1C(=O)O | Escherichia coli | µg/mL | 2
CC(=O)NCCCC[C@H](C(=O)N[C@@H]1C(=O)N2[C@@H]1SC(C)(C)[C@@H]2C(=O)O)c1ccccc1 | Escherichia coli | µg/mL | 30
CC1(C)S[C@@H]2[C@H](NC(=O)[C@@H](CCCCN)c3ccccc3)C(=O)N2[C@H]1C(=O)O | Escherichia coli | µg/mL | 100
CC1(C)S[C@@H]2[C@H](NC(=O)[C@H](N)c3ccccc3)C(=O)N2[C@H]1C(=O)O | Escherichia coli | µg/mL | 2
CC1(C)S[C@@H]2[C@H](NC(=O)[C@H](CCCCN)c3ccccc3)C(=O)N2[C@H]1C(=O)O | Escherichia coli | µg/mL | 10

Lab note: "CC(=O)NCCCC[C@@H](C(=O)N[C@@H]1C(=O)N2[C@@H]1SC(C)(C)[C@@H]2C(=O)O)c1ccccc1" gave Concentration of 100

----------
Tested on: Escherichia coli
assay.method.text: Concentration required for 90 percent inhibition of [14C]- pen-G binding to Escherichia coli DCO PBP2 66 KDa
Provide the reported Concentration of each item.
One number for each entry, in µg/mL.

See these solved cases before continuing.
item.smiles | meas.value
CC(=O)NCCCC[C@H](C(=O)N[C@@H]1C(=O)N2[C@@H]1SC(C)(C)[C@@H]2C(=O)O)c1ccccc1 | 30
CC1(C)S[C@@H]2[C@H](NC(=O)[C@@H](CCCCN)c3ccccc3)C(=O)N2[C@H]1C(=O)O | 30
CC1(C)S[C@@H]2[C@H](NC(=O)[C@H](N)c3ccccc3)C(=O)N2[C@H]1C(=O)O | 0.5
CC1(C)S[C@@H]2[C@H](NC(=O)[C@H](CCCCN)c3ccccc3)C(=O)N2[C@H]1C(=O)O | 30

Proceed to the following item.
Concentration for "CC1(C)S[C@@H]2[C@H](NC(=O)Cc3ccccc3)C(=O)N2[C@H]1C(=O)O" is 10
